Assay: Stability against human liver microsomes
Format: in vitro ADME
Settings: 2 μM compound
Protocol: Determination of Stability Against Mouse and Human Mirosomes Pooled human liver microsomes (Cat. 452161; Lot. 23418) were purchased from Corning and pooled male mouse liver microsomes (Cat. M1000; Lot. 1210302) were purchased from Xenotech. Microsomes were stored at −80° C. prior to use. 40 μL of ultra-pure H2O was used instead of NADPH solution in the negative control. The negative control was used to exclude the misleading factor that was resulted from instability of chemical itself. […]
Quick list: Liver microsome stability remaining % after 60 min incubation with NADPH, human LM per entry.
reported endpoint: Liver microsome stability remaining % after 60 min incubation with NADPH, human LM (%)

{"molecule": "CO/N=C/c1c(C)c(Cl)c(OC)c(C/C=C(C)/C=C/[C@@]2(C)[C@H](C)CC/C(=N\\OCC(=O)O)[C@@H]2C)c1O [Compound 19]", "value reported": 94}
{"molecule": "CO/N=C/c1c(C)c(Cl)c(OC)c(C/C=C(C)/C=C/[C@@]2(C)[C@H](C)CC/C(=N\\OC)[C@@H]2C)c1O [Compound 8]", "value reported": 100}
{"molecule": "COc1c(Cl)c(C)c(C=O)c(O)c1C/C=C(C)/C=C/[C@@]1(C)[C@H](C)CCC(=O)[C@@H]1C [MAC, reference compound]", "value reported": 2}
{"molecule": "CC(/C=C/[C@@]1(C)[C@H](C)CC/C(=N\\O)[C@@H]1C)=C\\Cc1c(O)c(/C=N/O)c(C)c(Cl)c1OCF [Compound 4]", "value reported": 67}
